Please go through the items and note down their Mean survival day of the mice which died, p.o..
Test system: Candida albicans T.A.
Protocol: Protective effect at a single dose of 1.04 μmol/kg against experimental Candida albicans TA infection in mice (Experiment 3)
Format: in vivo
Test conditions: 1.04 μmol/kg p.o., n = 5 mice, mice which had died up to 7 days after infection
Give bare numbers, in days.

In the examples that follow, each entry is paired with its recorded Mean survival day of the mice which died, p.o..
Please respond with reported Mean survival day of the mice which died, p.o. (system Candida albicans T.A.) for CCC(=O)OC[n+]1cnn(C[C@](O)(c2ccc(F)cc2F)[C@@H](C)N2CCN(c3ccc(-n4cnnn4)cc3)C2=O)c1.[Cl-] [Compound 14] .
6.0

Fill in Mean survival day of the mice which died, p.o. for CC(=O)OC[n+]1cnn(C[C@](O)(c2ccc(F)cc2F)[C@@H](C)N2CCN(c3ccc(-n4cnnn4)cc3)C2=O)c1.[Br-] [Compound 11] tested with Candida albicans T.A..
6.0

// fetch Mean survival day of the mice which died, p.o. for CC(N1CCN(c2ccc(-n3cnnn3)cc2)C1=O)C(O)(Cn1cncn1)c1ccc(F)cc1F (stereo not shown) [Reference compound (V), reference compound] ; system: Candida albicans T.A.
4.3

Lab note: next compound to report on.
Fill in Mean survival day of the mice which died, p.o. for CC(=O)OC[n+]1cnn(C[C@](O)(c2ccc(F)cc2F)[C@@H](C)N2CCN(c3ccc(-n4cnnn4)cc3)C2=O)c1.[Cl-] [Compound 12] tested with Candida albicans T.A..
5.0
